B1: CPEB3 Ribozyme (parent)
chain: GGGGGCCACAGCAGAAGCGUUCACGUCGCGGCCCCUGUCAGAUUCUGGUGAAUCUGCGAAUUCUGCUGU

variants of: B1; assay: self-cleavage, relative activity (ratio to wild type); higher = more cleavage; co-transcriptional
Everything with self-cleavage lower than 0.3 is Not met; everything else, including exactly 0.3, is Met.

>  <sequence-input>
GGGGGCCACAGCAGAUGCGUUCAAGUCGCGGCCCCUGUCAGAUUCUGGUGAAUCUGCGAAUUCUGCUGU [A16U C24A]

>  <discrete-label>
Not met

$$$$
>  <sequence-input>
GGGGGCCACAGCAGAAGCGUUGACGUCGCGGCCCCUGUCAGAUUCUGGUGAAUCUGCGAAGUCUGCUGU [C22G U61G]

>  <discrete-label>
Not met

$$$$
>  <sequence-input>
GGGGGCCACAGCAGAAGCGUUCACGUCGCGGCCCCGGUCAGAUUCUGGUGAAUCUGCCAAUUCUGCUGU [U36G G58C]

>  <discrete-label>
Not met

$$$$
>  <sequence-input>
GGGGGCCACAGCAGAAGCGUUCACGUCGCGGUCCCUGUCAGAUUCUGGUGAAUCUGCGGAUUCUGCUGU [C32U A59G]

>  <discrete-label>
Met

$$$$

Would you kindly look at the next entry?
Decide: self-cleavage of GGGGGCUACAGCAGAAGCGAUCACGUCGCGGCCCCUGUCAGAUUCUGGUGAAUCUGCGAAUUCUGCUGU [C7U U20A] >= 0.3?
Not met
